Sourced from the supplement of paper PMC10065799

test system: c-Src; test: phosphorylation enrichment, bacterial display (enrichment ratio); higher = better substrate or ligand; peptides without Tyr show the background;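 further: 11-residue human phosphosite peptides and single-mutation variants displayed on the E. coli surface, counted by deep sequencing, each peptide's frequency after selection divided by its frequency in the unselected input library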;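 further: frequency after pTyr selection over input frequency; kinase dosed for 20-30% of maximal phosphorylation in three min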
Class definitions on phosphorylation enrichment: bottom bin: < 0.5; middle bin: ≥ 0.5 and < 0.7; top bin: ≥ 0.7

Answered cases to consult:
State the band of IVFVICDEVVK [SLC25A1_Y297_Y297C]
bottom bin

State the band of DHPSEYAARQL [ANXA13_Y90_R86H]
bottom bin

State the band of LEAFQYIGESQ [MSH2_Y856_E853A]
middle bin

New cases:
State the band of VFGVSYDEFRF [CFTR_Y512_I507V_YF]
top bin

State the band of FGGLRCGFGVL [KRTAP20-2_Y13_Y13C_YF]
bottom bin
